Entries and their EC50 (read off the curve)
Target: T1, human CD73 expressed at the cell surface (human, UniProt P21589 27-549)
T1 construct: GPI-anchored dimer on cells; also called huCD73; cellular CD73
T1 sequence: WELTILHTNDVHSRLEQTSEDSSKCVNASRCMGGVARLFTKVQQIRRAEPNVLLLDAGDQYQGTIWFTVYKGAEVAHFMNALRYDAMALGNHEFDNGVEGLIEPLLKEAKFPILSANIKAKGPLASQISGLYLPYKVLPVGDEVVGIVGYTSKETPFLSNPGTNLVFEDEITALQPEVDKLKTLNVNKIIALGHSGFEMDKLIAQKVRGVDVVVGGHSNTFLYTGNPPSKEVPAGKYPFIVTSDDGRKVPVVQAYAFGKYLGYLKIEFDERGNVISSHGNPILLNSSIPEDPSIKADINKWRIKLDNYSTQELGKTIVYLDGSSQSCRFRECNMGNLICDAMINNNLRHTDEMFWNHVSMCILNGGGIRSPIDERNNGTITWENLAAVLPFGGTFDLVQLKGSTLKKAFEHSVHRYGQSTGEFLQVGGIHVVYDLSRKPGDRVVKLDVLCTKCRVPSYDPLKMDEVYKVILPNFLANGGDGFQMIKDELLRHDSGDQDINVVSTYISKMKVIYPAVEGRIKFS
Assay: flow cytometry titration on a human-CD73-expressing recombinant host cell line, median of fluorescence

// known answers, use as guide
binder	result
antibody 6E1 (antibody, human IgG1, V domains shown, Produced as chimeric human IgG1 with heavy chain N297Q (Kabat EU numbering)) VH: EFQLQQSGPELVKPGASVKVSCKASGYAFTSYNMYWVKQSHGKRLEWIGYIDPYNGGSSYNQKFKGKATLTVDKSSSTAYMHLNNLTSEDSAVYYCARGYNNYKAWFAYWGQGTLVTVSA VL: SIVMTQTPKFLLVSAGDRVTITCKASQSVTNDVAWYQQKPGQSPKLLIYYASNRYTGVPDRFTGSGYGTDFTFTISTMQAEDLAVYFCQQDYSSLTFGAGTKLELK	~0.4 µg/mL
antibody 3C12 (antibody, human IgG1, V domains shown, Produced as chimeric human IgG1 with heavy chain N297Q (Kabat EU numbering); RTVAAP)) VH: QIQLQQSGPELVKPGASVKVSCKASGYAFASYNMNWVKQSHGKSLDWIGYIDPYNGGSSYNLTFKGKATLTVDKSSTTAYMHLNSLTSEDSAVYYCARGYGNYKAWFAYWGQGTLVTVSA VL: DVVMTQTPKFLLVSAGDRVTITCKASQSVSNDVAWYQQKPGQSPKLLIYYASTRYTGVPDRFTGSGYGTDFTFTISTVQAEDLAVYFCQQDYSSLTFGAGTKLELKR	~0.6 µg/mL
antibody 11E1 (antibody, human IgG1, V domains shown, Produced as chimeric human IgG1 with heavy chain N297Q (Kabat EU numbering); also called 1E11) VH: EIQLQQSGPELVKPGASVKVSCKASGYAFTSYNMYWVKQSHGKSLEWIGYIDPYNGGTSYNQKFKGKATLTVDKSSSTAYMHLNSLTSEDSAVYYCARGYGNYKAWFAYWGQGTLVTVSA VL: DAVMTQTPKFLLVSAGDRVTITCKASQSVTNDVAWYQQKPGQSPKLLIYYASNRYTGVPDRFTGSGYGTDFTFTISTVQAEDLAVYFCQQDYSSLTFGAGTKLELK	~0.4 µg/mL

Note: attention shifts to another entry.
Which EC50 (read off the curve) value is on record for antibody 8C7 (antibody, human IgG1, V domains shown, Produced as chimeric human IgG1 with heavy chain N297Q (Kabat EU numbering); RTVAAP)) VH: EVQLQQSGPELVKPGASVKVSCKASGYAFASYNMNWVKQSHGKSLDWIGYIDPYNGGSSYNLTFKGKATLTVDKSSTTAYMHLNSLTSEDSAVYYCARGYGNYKAWFAYWGQGTLVTVSA VL: SIVMTPTPKFLLVSAGDRVTITCKASQSVSNDVAWYQQKPGQSPKLLIYYASTRYTGVPDRFTGSGYGTDFTFTISTVQAEDLAVYFCQQDYSSLTFGAGTKLELKR ? ~0.1 µg/mL
